Recorded measurements of melting point, one per entry

Past entries and their recorded results:
## Input Report melting point for `O=C1C=C(NC(=O)C(=O)c2cn(Cc3ccc(Cl)cc3)c3ccc([N+](=O)[O-])cc23)CO1` please.
## Output 248 to 250 °C

## Input Try this compound next: CCc1nc2c(cnn2CC)c(NC2CCOCC2)c1CNC(=O)c1cccc(C(=O)NCc2ccc(C)c(-c3cccc(CN4CC5CC4CN5)c3)c2)c1 (centres undefined)
## Output 138 to 140 °C

## Input Entry to check: `CCOc1cc(C=[N+]([O-])C2CCCCC2)ccc1OC`
## Output 114 °C

## Input Also need `COc1ccc2c(N)c([N+](=O)[O-])sc2c1` , thanks.
## Output > 250 °C

## Input What do you have for `CCOc1nn(Cc2ccc(OCc3cn4c(Cl)cccc4n3)cc2)cc1CCC(=O)O` ?
## Output 153 to 154 °C

Continuing:
## Input Would you kindly share the measured melting point for `CCOC(=O)C(C)(C)Oc1ccc(-c2ccc(CCNC(=O)c3cc(OC)c(OC)c(OC)c3)cc2)cc1` ?
## Output < 20 °C

## Input What do you have for `O=C1c2ccccc2SCC1(CO)CO` ?
## Output 136 to 139 °C

## Input `CC(C)c1cc(CC#N)c(C(C)C)cc1C#N` ?
## Output 88 to 89 °C

## Input // same read-out, input: `COc1cc2cc3c(=O)c(C#N)c[nH]c3cc2cc1O`
## Output > 300 °C

## Input And what about the compound `Oc1ccc2c(c1)OC=C(CN1CCN(C(c3ccc(F)cc3)c3ccc(F)cc3)CC1)O2` ?
## Output 190 °C

## Input Input `CC(=O)c1ccc(S(=O)(=O)Nc2ccccn2)cc1`
## Output 198 to 199 °C

## Input How about `O=C(O)c1cc(N2CCN(Cc3ccccc3)CC2)ccc1[N+](=O)[O-]` ?
## Output 172 °C

## Input Again, but for `Cc1ccc(-c2ccc3c(c2)C=C(C(=O)Nc2ccc(CN4CCN(c5ncccn5)CC4)cc2)CC3)cc1`
## Output 203 to 204 °C

## Input Thanks! And `O=C(CN1CCNCC1)Nc1ccccc1` ?
## Output 71 to 72 °C

## Input Also `CCCC(CCC)C(=O)NCC(=O)NCCCCCNC(=O)n1cc(F)c(=O)[nH]c1=O` , if possible.
## Output 117 to 118 °C

## Input Now try CC1CCCCC1C(=O)Nc1ccc(-c2ncc(-c3ccc(NC(=O)C4CCCCCC4)cc3)[nH]2)cc1 (centres undefined) .
## Output 258 to 260 °C

----------
ASSAY_METRIC: melting point

Below are worked cases with known answers.
## Input Returns the measured melting point for the input compound. Input: `COC(=O)c1nc2nc(C)c(C)c(S)n2n1`
## Output 206 to 207 °C

## Input Would you mind doing `COc1ccc(N2CCOCC2)c2sc(C(=O)NCC(=O)c3ccc4c(c3)OCCO4)nc12` as well?
## Output 175 °C

## Input Also need `Cc1ccsc1C=Nc1cc([N+](=O)[O-])ccc1O` , thanks.
## Output 169 to 171 °C

## Input Also COc1ccc(C2(Cl)CC(CNC(C)(C)C)=Nc3sc4c(c32)CCNC4)cc1OC (centres undefined) ?
## Output 162 to 163 °C

## Input Would you kindly repeat that for `CSC(=C[N+](=O)[O-])NCCSCc1cc(C)c(CN(C)C)s1` ?
## Output 69 to 71 °C

## Input Cool, now CC(C)(C)SC(=O)C=CC1C(C(=O)OCc2ccc(F)c(Oc3ccccc3)c2)C1(C)C (centres undefined)
## Output 82 °C

---
## Input Query: melting point; subject: `COc1ccc(C(=O)O)c(OCc2ccc(OCCc3nc(-c4ccccc4)oc3C)cc2)c1`
## Output 113 to 115 °C

## Input Now consider `COC(=O)c1cc(C(=O)NC2CCOCC2)c2cc(Cc3ccc(F)cc3)cnc2c1O` .
## Output 246 to 247 °C

## Input // next record `COC(=O)CCCCCOc1ccc(NC(=O)OCCOC(=O)Nc2ccc(OCCCCCC(=O)OC)cc2)cc1`
## Output 118 to 120 °C
